Data provenance is PubChem BioAssay (NCI).

Each entry below carries its recorded log10(TGI).
# Test system: SK-OV-3 ovarian
# PROTOCOL_SUMMARY: NCI tumour cell line growth inhibition, 48 h
Lab note - TGI converted to log10 from values in µM.

CCOC(=O)C(CC(C)C)NC(=O)C(N)Cc1ccc(N(CCCl)CCCl)cc1 (stereo not given) | 1.22

Now consider a different compound.
Bench note: what log10(TGI) did `COc1ccccc1NC(=S)NNC(=O)c1cc(-c2ccccc2)nc2ccccc12` show? 1.62

---

# System: HCT-116 colon
# PROTOCOL_SUMMARY: NCI tumour cell line growth inhibition, 48 h
MEASURED_ATTRIBUTE: TGI

Example compounds with recorded TGI:
CNC(=S)N/N=C(\C)c1cc(OC)c(OC)cc1O | > 100 µM
CN1C(=O)CNS1(=O)=O | > 100 µM
CC1=CC=C2C(C)(C)CC[C@@H]3OC(=O)[C@H]1[C@]23C | > 100 µM
CCCCN(CCCC)C(=O)C(=O)C(C(=O)C(=O)OC)c1nc2ccccc2o1 (stereo not given) | > 100 µM
CNC(=O)Nn1c(SC)nc2ccccc21 | > 100 µM

Could you share which TGI value was measured for `CC[C@H](C)[C@H](NC(=O)[C@H](Cc1ccc(O)cc1)NCC(F)(F)F)C(=O)OC(C)(C)C` ? 16.6 µM

What does the record list as TGI for `O=C(Cc1c(C(=O)Nc2ccccc2)sc(C(=O)Nc2ccccc2)c1CC(=O)Nc1ccccc1)Nc1ccccc1` ? > 100 µM

Give the measured TGI of `CCOC(=O)Nc1ccc2c3c(cccc13)-c1ccccc1-2` . > 100 µM

---

# System: MALME-3M melanoma
# PROTOCOL_SUMMARY: NCI tumour cell line growth inhibition, 48 h
MEASURED_ATTRIBUTE: TGI (µM)
Record the value in µM, omitting the unit from your answer.

The examples below pair each entry with its known result.
Cc1ccc(S(=O)OC2c3ccccc3Cc3ccccc32)cc1 (stereo unspecified) | 26.7
Nc1n[nH]c2ccc([C@H]3[C@@H]4C5CCC(C5)[C@@H]4c4c(ccc5[nH]ncc45)N3S(=O)(=O)C3CC3)cc12 (stereo partly specified) | 40.9
Cc1ccc([I+]c2ccc(C)cc2)cc1 | 44.8
Cc1ccc(S(=O)(=O)NN=C2C(C)CC(C(C)(C)C)CC2C)cc1 (stereo unspecified) | 32.6

Next compound, TGI to be filled in.
Item under review: `ClCc1nnc2n1-c1ccc(Cl)cc1SC2` . Reported TGI? 15.8

---

Below, each entry is listed with its recorded TGI.
# Tested on: IGROV1 ovarian
# PROTOCOL_SUMMARY: NCI tumour cell line growth inhibition, 48 h
Respond with the bare value in µM.

State the recorded TGI for this entry: `COc1c(O)cc2c(c1CC=C(C)C)OC(=O)c1c(cc(O)c(CC=C(C)C)c1O)O2` 7.91

Quick one: TGI of `O=C(/C=C/c1cccnc1)c1ccccc1` ? 25.6

Which TGI value is on record for CC(C)(Cl)C(Br)CCC(=CCBr)CBr (mixture of isomers) ? 5.56

State the recorded TGI for this entry: `O=C(NCCCNc1cc(-c2cn(-c3ccccc3)nc2-c2cccc(O)c2)ccn1)c1ccc(F)cc1` 24.9

Please report the recorded TGI for OC1CCC(COC(c2ccccc2)(c2ccccc2)c2ccccc2)O1 (stereo unspecified) . 36.8

For `O=C(CSc1nc2ccc([N+](=O)[O-])cc2[nH]1)Nc1ccc([N+](=O)[O-])cc1` , what is its reported TGI? 15.2

If you can, please state the reported TGI value of Cc1ccc(S(=O)OC2c3ccccc3Cc3ccccc32)cc1 (stereo unspecified) . 45.6

Look up TGI for this compound: `CCOC(=O)Cc1csc(Nc2nc(O)c(C3=c4ccccc4=NC3=O)s2)n1` 69

# query: TGI of entry `COC(=O)Nc1nc2ccc(C(=O)C3CC3)cc2[nH]1` 18.2

---

# System: HL-60(TB) leukemia
# PROTOCOL_SUMMARY: NCI tumour cell line growth inhibition, 48 h
Where a SMILES comes first, the peptide text is derived from it. The star is where a group is joined. Boc = CC(C)(C)OC(=O)*
MEASURED_ATTRIBUTE: TGI

Cc1ccc(S(=O)OC2c3ccccc3Cc3ccccc32)cc1 (stereo unspecified) | 44 µM

Endpoint output: TGI of `CSc1nc(SC)c2cnn(-c3ccnc4cc(Cl)ccc34)c2n1` . Value? 50.6 µM

Returns the measured TGI for the input molecule. Input: CNC(=O)CNC(=O)C(NC(=O)CNC(=O)C1CCCN1C(=O)C(C)NC(=O)C(NC(=O)OC(C)(C)C)C(C)C)C(C)C (stereo unspecified) (Boc-VAPGVG-NHMe; configuration not given here) > 100 µM

Given `Cc1cc(S(=O)(=O)Nc2n[nH]c(-c3ccc(Cl)cc3)c2C#N)c(S)cc1Cl` , state its recorded TGI. > 100 µM

Returns the measured TGI for the input molecule. Input: `CCOC(=O)c1sc(Nc2cc(Cl)ccc2Cl)nc1C` > 100 µM

---

In this section, each of the molecules is paired with its reported TGI.
# Tested on: K-562 leukemia
# PROTOCOL_SUMMARY: NCI tumour cell line growth inhibition, 48 h

Some solved cases for reference:
CCc1nc2c(n1CC)C(=O)c1ccccc1C2=O | > 100 µM
Cc1cccc2c1NC(=O)[C@@H](NC(=O)[C@H](CCC(F)(F)F)[C@H](CCC(F)(F)F)C(N)=O)N=C2c1cccc(F)c1 | > 100 µM

// lookup TGI for `Cn1cnc([N+](=O)[O-])c1Sc1nccn1-c1ccccc1` > 100 µM

May I ask what TGI has been recorded for `Cc1cc2c(=O)cc(-c3ccc(Cl)cc3Cl)oc2c(C(=O)O)c1C` ? > 100 µM

For the molecule `Cc1cc2c(=O)cc(-c3ccc(O)cc3)oc2c(C(=O)O)c1C` , what TGI is on record? > 100 µM

Could you share which TGI value was measured for `CN(CC(=O)O)S(=O)(=O)c1ccc(Cl)cc1` ? > 100 µM

Entry `O=C1NC(=N[C@@H]2C[C@H]2c2ccccc2)S/C1=C\c1ccc2ncccc2c1` : reported TGI = ? > 25 µM

---

# System: SF-295 CNS
# PROTOCOL_SUMMARY: NCI tumour cell line growth inhibition, 48 h
MEASURED_ATTRIBUTE: TGI

Worked examples, 4 compounds total:
O=C(Cc1c(C(=O)Nc2ccccc2)sc(C(=O)Nc2ccccc2)c1CC(=O)Nc1ccccc1)Nc1ccccc1 | > 100 µM
C=CC(C)(C)c1c(OC)oc2ccc(OC)c(C)c2c1=O | > 100 µM
O=C1CCN(CCC(F)(F)C(F)(F)C(F)(F)C(F)(F)F)C(=S)N1 | > 100 µM
O=C([CH-]C(=O)c1ccccc1)c1ccccc1.O=C([CH-]C(=O)c1ccccc1)c1ccccc1.[CH2-]CCC.[CH2-]CCC.[Sn+4] | 2.35 µM

Given `Cc1cc(C)c2c(=O)cc(-c3ccc(F)cc3)[nH]c2n1` , state its recorded TGI. > 100 µM

Consider the compound shown here: CC12CCC3C(CCC4(O)C=CCCC34C=O)C1(O)CC(O)C2c1ccc(=O)oc1 (stereo unspecified) What is its recorded TGI? 0.149 µM

---

Quick reference for GI50 among some molecules
# Test system: SR leukemia
# PROTOCOL_SUMMARY: NCI tumour cell line growth inhibition, 48 h

// lookup GI50 for `Clc1ccc(Nc2ncnc3ccccc23)cc1` 23000 nM

---

# System: IGROV1 ovarian
# PROTOCOL_SUMMARY: NCI tumour cell line growth inhibition, 48 h
Below, each entry is listed with its recorded GI50.

# get_value(readout='GI50', item= `COc1ccc(/C=C/C(=O)c2ccc(B(O)O)cc2)cc1O` ) 12.5 µM

Which GI50 value belongs to `CN(CCNc1ccc(C(=N)N)cc1)c1ccc(C(=N)N)cc1` ? 68.8 µM

---

# System: NCI-H522 lung
# PROTOCOL_SUMMARY: NCI tumour cell line growth inhibition, 48 h; in the data active means GI50 below about 0.43 µM; inactive means the rest
The reply should name one outcome from active, inactive

Use these answered entries as a reference point.
Fc1ccc(-c2nn3c(COc4ccccc4Cl)nnc3s2)cc1Oc1ccccc1 | inactive
Fc1cc(C2=Nn3c(nnc3-c3cc(F)c(Cl)cc3Cl)SC2)c(Cl)cc1Cl | inactive
O=C1/C(=C\c2ccc(Cl)cc2)CN(C(=O)c2ccccc2)C/C1=C\c1ccc(Cl)cc1 | inactive

# fetch the recorded call for `Cc1ccc([I+]c2ccc(C)cc2)cc1` here inactive

Test call, this compound: `Oc1c(CCl)cc(Cl)cc1Cc1cc(Cl)cc(Cc2cc(Cl)cc(CCl)c2O)c1O` inactive

// outcome(item) with item = `COc1cc2c3c(n(CCCNC(C)(C)CO)c(=O)c2cc1OC)-c1cc2c(cc1C3=O)OCO2` inactive

Please let me know the test result on file for COc1ccc2c(c1)OC(N)=C(C#N)C2c1ccc(F)c(F)c1 (stereo not drawn) . active

Answer briefly: the call reported for COc1ncnn2ccc(-c3cnc4nc(C)n(Cc5nnc(C(C)F)o5)c4c3)c12 (stereo not drawn) in this assay. active
